Measurement target: PKMYT1 (human) (UniProt Q99640)
Sequence (Q99640 whole entry, looked up): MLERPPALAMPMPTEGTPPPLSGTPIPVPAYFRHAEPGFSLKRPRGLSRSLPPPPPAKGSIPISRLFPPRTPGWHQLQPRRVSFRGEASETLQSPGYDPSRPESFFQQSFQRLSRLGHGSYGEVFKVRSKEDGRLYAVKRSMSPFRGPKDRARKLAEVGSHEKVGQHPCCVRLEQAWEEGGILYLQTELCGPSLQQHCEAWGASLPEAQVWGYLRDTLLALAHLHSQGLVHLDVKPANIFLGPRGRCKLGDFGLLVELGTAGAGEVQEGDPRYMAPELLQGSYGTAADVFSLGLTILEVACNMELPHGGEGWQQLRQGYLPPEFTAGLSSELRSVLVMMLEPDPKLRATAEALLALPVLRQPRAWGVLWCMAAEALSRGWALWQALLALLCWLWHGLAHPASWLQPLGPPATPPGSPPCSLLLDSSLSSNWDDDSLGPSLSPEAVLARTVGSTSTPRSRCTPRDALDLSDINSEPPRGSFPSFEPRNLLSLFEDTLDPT
Assay text: KINOMEscan competition binding
Condition summary: compound 10.0 µM
Measurement name: kinase still bound, per cent of control (%)

Smiles notation	Measurement target	Reported result
O=C1Nc2ccc(I)cc2/C1=C/c1cc(Br)c(O)c(Br)c1	PKMYT1 (human) (UniProt Q99640)	79
O=C(NC1CC1)c1cccc(-c2ccc3c(NC(=O)C4CC4)n[nH]c3c2)c1	PKMYT1 (human) (UniProt Q99640)	77
CCCS(=O)(=O)Nc1ccc(F)c(C(=O)c2c[nH]c3ncc(-c4ccc(Cl)cc4)cc23)c1F	PKMYT1 (human) (UniProt Q99640)	100
O=C(NOC[C@H](O)CO)c1ccc(F)c(F)c1Nc1ccc(I)cc1F	PKMYT1 (human) (UniProt Q99640)	80
CC[C@@H]1C(=O)N(C)c2cnc(Nc3ccc(C(=O)NC4CCN(C)CC4)cc3OC)nc2N1C1CCCC1	PKMYT1 (human) (UniProt Q99640)	100
